system.tested: human mGlu4 receptor (Homo sapiens (Human), UniProt Q14833)
Sequence (Q14833 33-912): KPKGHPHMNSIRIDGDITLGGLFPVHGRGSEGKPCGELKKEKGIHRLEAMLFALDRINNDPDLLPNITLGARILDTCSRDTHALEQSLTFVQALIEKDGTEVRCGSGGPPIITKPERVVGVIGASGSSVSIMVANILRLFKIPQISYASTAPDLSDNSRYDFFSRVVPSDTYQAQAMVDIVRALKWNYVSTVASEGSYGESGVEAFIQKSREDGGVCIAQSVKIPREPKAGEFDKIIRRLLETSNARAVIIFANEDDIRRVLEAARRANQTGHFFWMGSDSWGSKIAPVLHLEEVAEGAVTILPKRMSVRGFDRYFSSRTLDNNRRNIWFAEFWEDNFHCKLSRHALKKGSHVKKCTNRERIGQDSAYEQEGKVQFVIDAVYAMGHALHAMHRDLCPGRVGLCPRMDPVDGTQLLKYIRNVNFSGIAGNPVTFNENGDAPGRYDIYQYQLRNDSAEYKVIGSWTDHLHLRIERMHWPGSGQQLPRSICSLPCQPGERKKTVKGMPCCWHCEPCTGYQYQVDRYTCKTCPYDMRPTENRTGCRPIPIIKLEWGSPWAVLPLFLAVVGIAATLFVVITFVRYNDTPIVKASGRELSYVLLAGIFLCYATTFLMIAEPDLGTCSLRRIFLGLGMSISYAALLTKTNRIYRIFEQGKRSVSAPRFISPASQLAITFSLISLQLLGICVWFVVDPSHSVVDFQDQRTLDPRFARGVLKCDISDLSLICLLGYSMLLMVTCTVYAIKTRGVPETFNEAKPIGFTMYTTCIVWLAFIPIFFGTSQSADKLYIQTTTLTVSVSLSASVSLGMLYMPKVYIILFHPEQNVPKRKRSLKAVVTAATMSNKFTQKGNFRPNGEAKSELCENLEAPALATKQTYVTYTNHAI
test.summary: Ca2+ mobilization in vitro assay on recombinant human mGlu4 expressed in HEK293 cells (PAM)
Format: cell-based
measurement.parameters: HEK293; maximal response in % of maximal stimulatory effect of saturating L-AP4; read-out: Eff. (%)
metric: Emax (%)
Number only, in %; omit the unit.

# compound Cn1ncc(N2CCN3C(=O)N(c4c(F)cc(C#Cc5ccccc5)cc4F)C(=O)CC3(C)C2=O)cc1=O (racemic) ; its Emax = 120

Documented Emax of CC(C)n1cc(N2CCN3C(=O)N(c4c(F)cc(C#Cc5ccccc5)cc4F)C(=O)C[C@@]3(C)C2=O)cn1 : 150

Kindly note the recorded Emax for Cc1cccc(CN2CCN3C(=O)N(c4c(F)cc(C#Cc5ccccc5)cc4F)C(=O)CC3(C)C2=O)c1 (racemic) , which is 79

// Cn1nccc1CN1CCN2C(=O)N(c3c(F)cc(C#Cc4ccccc4)cc3F)C(=O)C[C@@]2(C)C1=O : Emax value = 128

For record COCCCN1CCN2C(=O)N(c3c(F)cc(C#Cc4ccccc4)cc3F)C(=O)C[C@@]2(C)C1=O the listed Emax is 132

The recorded Emax for entry Cc1nccn1CCN1CCN2C(=O)N(c3c(F)cc(C#Cc4ccccc4)cc3F)C(=O)C[C@@]2(C)C1=O equals 146

Value of measured Emax for the entry CC12CC(=O)N(c3c(F)cc(C#Cc4ccccc4)cc3F)C(=O)N1CCN(c1nc(C#N)cs1)C2=O (racemic) : 94

Each recorded value in this set is attributed to patent US10011607B2.
